B1: TPR t1 (parent)
chain: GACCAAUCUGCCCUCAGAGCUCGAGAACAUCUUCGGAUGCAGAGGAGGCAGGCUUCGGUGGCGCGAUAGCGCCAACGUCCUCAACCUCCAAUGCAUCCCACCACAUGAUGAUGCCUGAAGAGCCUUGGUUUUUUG

Variants of: B1
Assay: polymerase ribozyme fitness, log enrichment relative to wild type (log ratio); higher = more active; in vitro selection for triplet polymerase activity

{"mutation": "G19U A41C U92A C94U C115U U133G", "polymerase ribozyme fitness (log ratio)": -5.87}
{"mutation": "G120U U125A", "polymerase ribozyme fitness (log ratio)": 0.531}
{"mutation": "C8A C13G G17C C82U", "polymerase ribozyme fitness (log ratio)": -4}
{"mutation": "A41U G61A G127C", "polymerase ribozyme fitness (log ratio)": -2.63}
{"mutation": "U7G C73A C80A G128C", "polymerase ribozyme fitness (log ratio)": -5.2}
{"mutation": "G61C G65A C82U", "polymerase ribozyme fitness (log ratio)": -7.8}
{"mutation": "A6C C8U C89U", "polymerase ribozyme fitness (log ratio)": -0.206}
{"mutation": "C80U C101U A121C", "polymerase ribozyme fitness (log ratio)": 1.19}
{"mutation": "C64U C101A", "polymerase ribozyme fitness (log ratio)": -1.22}
{"mutation": "C28G C34U G35U A37U A95C C114U U133G", "polymerase ribozyme fitness (log ratio)": -6.83}
{"mutation": "G71A U116C G117U", "polymerase ribozyme fitness (log ratio)": -2.83}
{"mutation": "U59C U106G", "polymerase ribozyme fitness (log ratio)": -1.74}
{"mutation": "G10U G61A C123G", "polymerase ribozyme fitness (log ratio)": 1.03}
{"mutation": "C49U G60A C82U U106A G120C G135A", "polymerase ribozyme fitness (log ratio)": 0.366}
{"mutation": "G35C G52U C53G A90G C98U", "polymerase ribozyme fitness (log ratio)": -6.7}
{"mutation": "C62U A68G C99U U133G", "polymerase ribozyme fitness (log ratio)": -6.26}
{"mutation": "U21G G45U U92G", "polymerase ribozyme fitness (log ratio)": -5.73}
{"mutation": "G17A A43U G120A", "polymerase ribozyme fitness (log ratio)": -3.38}
{"mutation": "A41G C64A", "polymerase ribozyme fitness (log ratio)": -7.34}
{"mutation": "A43U C53G", "polymerase ribozyme fitness (log ratio)": -1.38}
{"mutation": "U9G C12A U14C G44C G63A G77A G93A", "polymerase ribozyme fitness (log ratio)": -2.85}
{"mutation": "U59C G113A", "polymerase ribozyme fitness (log ratio)": -1.03}
{"mutation": "G10C U32C G52A G69C U112A G128A", "polymerase ribozyme fitness (log ratio)": -4.78}
{"mutation": "G48U C53A C62U C82U U106A A108G", "polymerase ribozyme fitness (log ratio)": -1.03}
{"mutation": "G60C G69U G93A G113C", "polymerase ribozyme fitness (log ratio)": -5.05}
{"mutation": "A84C G120U", "polymerase ribozyme fitness (log ratio)": 1.51}
{"mutation": "G35U C79A", "polymerase ribozyme fitness (log ratio)": -6.66}
{"mutation": "C20G C56A", "polymerase ribozyme fitness (log ratio)": -4.28}
{"mutation": "U21G", "polymerase ribozyme fitness (log ratio)": -0.965}
{"mutation": "A18U G57U C94G U112G", "polymerase ribozyme fitness (log ratio)": -5.68}
{"mutation": "C40G G120A", "polymerase ribozyme fitness (log ratio)": 0.215}
{"mutation": "G36U U106A", "polymerase ribozyme fitness (log ratio)": -1.6}
{"mutation": "G52A C56A U106A", "polymerase ribozyme fitness (log ratio)": -1.08}
{"mutation": "A5U A41C U55C U59C C82G G120C U125A", "polymerase ribozyme fitness (log ratio)": -2.81}
{"mutation": "U116C U132C", "polymerase ribozyme fitness (log ratio)": -1.33}
{"mutation": "A43U G52U A68G C124U", "polymerase ribozyme fitness (log ratio)": -5.64}
{"mutation": "U9A C15A A37G C56U G65A C79G C86G C115A", "polymerase ribozyme fitness (log ratio)": -7.1}
{"mutation": "U14G U87G G127C", "polymerase ribozyme fitness (log ratio)": -4.35}
{"mutation": "G45A G48U", "polymerase ribozyme fitness (log ratio)": -1.58}
{"mutation": "C22A C73G C82A G120U U125C", "polymerase ribozyme fitness (log ratio)": -5.37}
{"mutation": "U9A C31U A111C G135U", "polymerase ribozyme fitness (log ratio)": -4.56}
{"mutation": "C4G G63U G120U G122U", "polymerase ribozyme fitness (log ratio)": -1.51}
{"mutation": "G10U C72A", "polymerase ribozyme fitness (log ratio)": -0.423}
{"mutation": "C8A G63A", "polymerase ribozyme fitness (log ratio)": -0.863}
{"mutation": "G63C C101U C102U G120C", "polymerase ribozyme fitness (log ratio)": -2.17}
{"mutation": "C8G A50G G63A U112A G122A", "polymerase ribozyme fitness (log ratio)": -1.09}
{"mutation": "C3A G60U", "polymerase ribozyme fitness (log ratio)": -1.28}
{"mutation": "G35U G69U", "polymerase ribozyme fitness (log ratio)": -0.908}
{"mutation": "A16G G61C A84C G117A A119G", "polymerase ribozyme fitness (log ratio)": -2.13}
{"mutation": "U78A A100C", "polymerase ribozyme fitness (log ratio)": -1.08}
{"mutation": "A18U U21C G36A C72U C114U", "polymerase ribozyme fitness (log ratio)": -4.3}
{"mutation": "C101G G122A", "polymerase ribozyme fitness (log ratio)": -2.93}
{"mutation": "G58U C73A", "polymerase ribozyme fitness (log ratio)": -0.295}
{"mutation": "C70A U81C", "polymerase ribozyme fitness (log ratio)": -2.67}
{"mutation": "A27C G71A U116C", "polymerase ribozyme fitness (log ratio)": -4.74}
{"mutation": "C20U U55G", "polymerase ribozyme fitness (log ratio)": -1.39}
{"mutation": "C3U C86G G113C", "polymerase ribozyme fitness (log ratio)": -3.51}
{"mutation": "C15G C34A C70G A121C", "polymerase ribozyme fitness (log ratio)": -6.55}
{"mutation": "C28U G63U G77A C94A U112C", "polymerase ribozyme fitness (log ratio)": -6.92}
{"mutation": "C20G C115G", "polymerase ribozyme fitness (log ratio)": -4.85}
{"mutation": "C22U G69A C104G A111C", "polymerase ribozyme fitness (log ratio)": -7.35}
{"mutation": "C49A C72U G77U C115A", "polymerase ribozyme fitness (log ratio)": -1.36}
{"mutation": "A103U C123U", "polymerase ribozyme fitness (log ratio)": -3.47}
{"mutation": "C4G G44C", "polymerase ribozyme fitness (log ratio)": -2.96}
{"mutation": "C70G U78G", "polymerase ribozyme fitness (log ratio)": -2.07}
{"mutation": "C53A G63U U81G A83U G120C", "polymerase ribozyme fitness (log ratio)": -3.85}
{"mutation": "C11G C72G C82G G117C", "polymerase ribozyme fitness (log ratio)": -3.64}
{"mutation": "A18U C86A C89U C123U", "polymerase ribozyme fitness (log ratio)": -3.07}
{"mutation": "C64A G113A", "polymerase ribozyme fitness (log ratio)": -6.92}
{"mutation": "A29G G71A U92C U129C", "polymerase ribozyme fitness (log ratio)": -4.75}
{"mutation": "U7G C11G C124U", "polymerase ribozyme fitness (log ratio)": 1.49}
{"mutation": "C15U G58A", "polymerase ribozyme fitness (log ratio)": -1.84}
{"mutation": "C53G C86A A118G", "polymerase ribozyme fitness (log ratio)": -1.38}
{"mutation": "A2C G63U C124U", "polymerase ribozyme fitness (log ratio)": -1.65}
{"mutation": "C12A G44A C72G A100U", "polymerase ribozyme fitness (log ratio)": -2.22}
{"mutation": "U9C U112G", "polymerase ribozyme fitness (log ratio)": 0.223}
{"mutation": "U32C C53U A103C", "polymerase ribozyme fitness (log ratio)": -4.2}
{"mutation": "U9G C80U C98U G110U", "polymerase ribozyme fitness (log ratio)": -3.68}
{"mutation": "A37C G69U U96G U129A", "polymerase ribozyme fitness (log ratio)": -0.113}
{"mutation": "C13U C15A G60A G113C G135U", "polymerase ribozyme fitness (log ratio)": -7.27}
{"mutation": "C11A G45U U125G G127A", "polymerase ribozyme fitness (log ratio)": -4}
{"mutation": "C49U G61U C70G U81G C115G C123U U130A", "polymerase ribozyme fitness (log ratio)": -5.96}
{"mutation": "A43C U92G A111C C114A", "polymerase ribozyme fitness (log ratio)": -6.46}
{"mutation": "C13G C28U", "polymerase ribozyme fitness (log ratio)": -3.35}
{"mutation": "G10A G39U G51A C70U", "polymerase ribozyme fitness (log ratio)": -5.24}
{"mutation": "A6C U9G G57U G113U G128U", "polymerase ribozyme fitness (log ratio)": -3.88}
{"mutation": "A37C G52A G69U C114G C123U", "polymerase ribozyme fitness (log ratio)": -2.89}
{"mutation": "A6U C8A G52U C53A C72A U92A C101A U130G", "polymerase ribozyme fitness (log ratio)": -5.85}
{"mutation": "C82G C102A G120A G122U", "polymerase ribozyme fitness (log ratio)": -2.05}
{"mutation": "G10U A50C C73A U78G A90G", "polymerase ribozyme fitness (log ratio)": -0.824}
{"mutation": "G65U", "polymerase ribozyme fitness (log ratio)": -4.27}
